System: NIH3T3
Experiment: Cytotoxic Profiling of Annotated Libraries Using Quantitative High-Throughput Screening (AID 1296008); also: nearly all actives have a fitted effect of over 60% in size
Conditions: Five cell lines viability, CellTiter-Glo ATP luminescence, 48-72 h
Inconclusive results are not listed. Calls of active or inactive are those of the source. Calls follow the shape of the dose curve; as a rule, active = well fitted inhibition curve with a large enough effect; inconclusive = small, poorly fitted or top-dose-only effect; inactive = flat fitted curve, though single readings scatter.
Allowed answers: active, inactive

Check out these entries, answers already filled in.
compound: Cn1cc(C=CC(=O)c2cccc(F)c2)cc1C=CC(=O)NO
experimental system: NIH3T3
label: inactive
//
compound: CCCc1nc(C(C)(C)O)c(C(=O)O)n1Cc1ccc(-c2ccccc2-c2nn[nH]n2)cc1
experimental system: NIH3T3
label: inactive
//
compound: COc1cc(O)c2c(c1)C1OC1C[C@H](O)[C@H](O)C(=O)C=CC[C@H](C)OC2=O (stereo not given in full)
experimental system: NIH3T3
label: active
//
compound: Cc1cncc2cccc(S(=O)(=O)N3CCCN(C(=O)CN)C[C@@H]3C)c12
experimental system: NIH3T3
label: active
//
compound: C=CC1=C(C(=O)O)N2C(=O)[C@@H](NC(=O)C(=NO)c3csc(N)n3)[C@H]2SC1
experimental system: NIH3T3
label: inactive
//
compound: C[C@H](NCc1ccc(OCc2cccc(F)c2)cc1)C(N)=O
experimental system: NIH3T3
label: active
//
compound: C=CC(=O)Nc1cccc(Nc2nc(NC3CCC(N(C)C)CC3)nc3c2ncn3C(C)C)c1 (stereo not given)
experimental system: NIH3T3
label: active
//
compound: Cn1cc(CNCC2CCN(c3ncc(C(=O)NO)cn3)CC2)c2ccccc21
experimental system: NIH3T3
label: active

Query: Any idea what this test logged for `O=C(c1ccc(F)cc1)N1CCC[C@H](c2nc(-c3ccc(F)cc3)no2)C1` ?
Reply: inactive

Query: Here is the next compound: `C=C(C)[C@@H]1CC[C@]2(C)CC[C@]3(C)[C@H](CC[C@@H]4[C@@]5(C)CC[C@H](O)C(C)(C)[C@H]5CC[C@]43C)[C@@H]12`
Reply: inactive

* * *

Assay: Quantitative High-Throughput drug screen in 47 multiple myeloma cell lines against the NCATS MIPE library collection: NCIH929_DSMZ cell viability assay (AID 1918978); also: nearly all actives have a fitted effect of over 35% in size
Conditions: NCI-H929 myeloma viability, CellTiter-Glo ATP, 48 h; series mostly up to 45.8 µM
Results filed as inconclusive are left out. Active and inactive are the calls of the source. Calls come from the whole dose curve; as a rule, active = well fitted cell-killing curve with a large enough effect; inconclusive = small, poorly fitted or top-dose-only effect; inactive = no such curve, though single readings can be large or run the other way.
The reply should name one outcome from True = active, False = inactive

compound: CC(=O)OCC(=O)[C@@]1(O)CC[C@H]2[C@@H]3CCC4=CC(=O)CC[C@]4(C)[C@@H]3C(=O)C[C@@]21C
label: False
--
compound: C=C1C[C@@]2(O)O[C@@]3(C[C@H]2C(C)C)[C@H](C)CC[C@H]13
label: False
--
compound: C[C@@H]1CC[C@@]2(OC1)OC1CC3C4CC=C5CC(O)CCC5(C)C4CCC3(C)C1[C@@H]2C (some centres not stated)
label: False

Query: // param item: `CCOC(=O)C=C[C@H](C[C@@H]1CCNC1=O)NC(=O)[C@@H](CC(=O)[C@@H](NC(=O)c1cc(C)on1)C(C)C)Cc1ccc(F)cc1` ; yields the recorded call
Reply: False

Query: Next compound up: `CC(=O)ON=C1C(c2c(O)[nH]c3cc(Br)ccc23)=Nc2ccccc21`
Reply: True

Query: Please answer likewise for `CC(C)(O)[C@H]1CC[C@@](C)([C@H]2[C@@H](O)C[C@@]3(C)[C@@H]4C[C@H](O[C@@H]5O[C@H](CO)[C@@H](O)[C@H](O)[C@@H]5O)[C@H]5C(C)(C)[C@@H](O[C@@H]6OC[C@@H](O)[C@H](O)[C@@H]6O)CC[C@@]56C[C@@]46CC[C@]23C)O1`
Reply: False

Query: Request: `CN1CCCN(C(=O)c2cccc(-c3ccc(C=C4C(=O)Nc5ccc(Cl)cc54)o3)c2)CC1`
Reply: True
